target-under-test: Cathepsin E (Homo sapiens, UniProt P14091)
Sequence (P14091 whole entry): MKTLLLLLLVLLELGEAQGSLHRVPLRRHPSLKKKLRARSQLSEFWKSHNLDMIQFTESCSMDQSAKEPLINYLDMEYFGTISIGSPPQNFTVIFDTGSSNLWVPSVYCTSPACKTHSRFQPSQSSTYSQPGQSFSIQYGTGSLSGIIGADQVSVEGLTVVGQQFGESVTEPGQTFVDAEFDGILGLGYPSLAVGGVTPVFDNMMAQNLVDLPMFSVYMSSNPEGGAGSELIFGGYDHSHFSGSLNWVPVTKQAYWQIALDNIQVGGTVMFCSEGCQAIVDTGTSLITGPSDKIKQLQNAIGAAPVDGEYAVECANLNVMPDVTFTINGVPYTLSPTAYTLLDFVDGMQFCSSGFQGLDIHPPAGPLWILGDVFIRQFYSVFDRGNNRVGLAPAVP

| smiles | IC50 |
| --- | --- |
| COCCCOc1cc(C[C@@H](C[C@H](N)[C@@H](O)C[C@H](C(=O)NCC(C)(C)C(N)=O)C(C)C)C(C)C)ccc1OC.Cl | > 10 µM |

----------
measurement-description: physchem
condition-info: water
assay-metric: solubility

| smiles | reported |
| --- | --- |
| COCCCOc1cc(C[C@@H](C[C@H](N)[C@@H](O)C[C@H](C(=O)NC[C@H]2CCC(=O)N2)C(C)C)C(C)C)ccc1OC.Cl | > 100 mg/mL |

----------
measurement-description: physchem
condition-info: octanol/water, pH 7.4
# logD per record follows

| compound | logD |
| --- | --- |
| COCCCCc1cc(C[C@@H](C[C@H](N)[C@@H](O)C[C@H](C(=O)NCCN2CCOCC2)C(C)C)C(C)C)ccc1OC.Cl | 2.85 |
| COCCCOc1cc(C[C@@H](C[C@H](N)[C@@H](O)C[C@H](C(=O)NC[C@H]2CCC(=O)N2)C(C)C)C(C)C)ccc1OC.Cl | 2.06 |
| COCCCOc1cc(C[C@@H](C[C@H](N)[C@@H](O)C[C@H](C(=O)NCC(C)(C)C(N)=O)C(C)C)C(C)C)ccc1OC.COCCCOc1cc(C[C@@H](C[C@H](N)[C@@H](O)C[C@H](C(=O)NCC(C)(C)C(N)=O)C(C)C)C(C)C)ccc1OC.O=C(O)/C=C/C(=O)O [ALISKIREN FUMARATE] | 2.5 |
| COCCCCc1cc(C[C@@H](C[C@H](N)[C@@H](O)C[C@H](C(=O)NCC(C)(C)C(N)=O)C(C)C)C(C)C)ccc1OC.Cl | 3.31 |
| COCCCOc1cc(C[C@@H](C[C@H](N)[C@@H](O)C[C@H](C(=O)NCCC(=O)N(C)C)C(C)C)C(C)C)ccc1OC | 2.48 |

----------
pIC50: −log10 of the molar value.
# pIC50 per entry for Renin (Callithrix jacchus)

| compound | pIC50 |
| --- | --- |
| COCCCOc1cc(C[C@@H](C[C@H](N)[C@@H](O)C[C@H](C(=O)NC[C@H]2CCC(=O)N2)C(C)C)C(C)C)ccc1OC.Cl | 8.70 |
| COCCCOc1cc(C[C@@H](C[C@H](N)[C@@H](O)C[C@H](C(=O)N[C@@H](CO)C(N)=O)C(C)C)C(C)C)ccc1OC | 8.22 |
| COCCCOc1cc(C[C@@H](C[C@H](N)[C@@H](O)C[C@H](C(=O)NCC(C)(C)N2CCOCC2)C(C)C)C(C)C)ccc1OC | 7.74 |
| COCCCOc1cc(C[C@@H](C[C@H](N)[C@@H](O)C[C@H](C(=O)NC(C)CN2CCOCC2)C(C)C)C(C)C)ccc1OC (stereo partly specified) | 8.05 |
| COCCCOc1cc(C[C@@H](C[C@H](N)[C@@H](O)C[C@H](C(=O)NCCCN2CCOCC2)C(C)C)C(C)C)ccc1OC | 8.52 |
| COCCCOc1cc(C[C@@H](C[C@H](N)[C@@H](O)C[C@H](C(=O)NCCc2nn[nH]n2)C(C)C)C(C)C)ccc1OC | 8.70 |
| COCCCOc1cc(C[C@@H](C[C@H](N)[C@@H](O)C[C@H](C(=O)NC[C@@H]2CCC(=O)N2)C(C)C)C(C)C)ccc1OC.Cl | 8.52 |
| COCCCOc1cc(C[C@@H](C[C@H](N)[C@@H](O)C[C@H](C(=O)NCC(C)(C)C(=O)O)C(C)C)C(C)C)ccc1OC | 7.89 |
| COCCCOc1cc(C[C@@H](C[C@H](N)[C@@H](O)C[C@H](C(=O)NCCN2CCOCC2)C(C)C)C(C)C)ccc1OC | 8.52 |
| COCCCOc1cc(C[C@@H](C[C@H](N)[C@@H](O)C[C@H](C(=O)NC(C)(C)C(N)=O)C(C)C)C(C)C)ccc1OC | 6.70 |
| CNC(=O)C(C)(C)CNC(=O)[C@@H](C[C@H](O)[C@@H](N)C[C@H](Cc1ccc(OC)c(OCCCOC)c1)C(C)C)C(C)C.Cl | 8.70 |
| COCCCOc1cc(C[C@@H](C[C@H](N)[C@@H](O)C[C@H](C(=O)N[C@H](C)CC(N)=O)C(C)C)C(C)C)ccc1OC | 7.55 |
| COCCCOc1cc(C[C@@H](C[C@H](N)[C@@H](O)C[C@H](C(=O)N[C@@H](C)CC(N)=O)C(C)C)C(C)C)ccc1OC | 8.52 |
| CC[C@H](NC(=O)[C@@H](C[C@H](O)[C@@H](N)C[C@H](Cc1ccc(OC)c(OCCCOC)c1)C(C)C)C(C)C)C(N)=O | 9.00 |
| COCCCCc1cc(C[C@@H](C[C@H](N)[C@@H](O)C[C@H](C(=O)NCCN2CCOCC2)C(C)C)C(C)C)ccc1OC.Cl | 9.00 |
| COCCCCc1cc(C[C@@H](C[C@H](N)[C@@H](O)C[C@H](C(=O)NCC(C)(C)C(N)=O)C(C)C)C(C)C)ccc1OC.Cl | 8.40 |

----------
# pIC50 per record follows
target-under-test: Renin (Homo sapiens, UniProt P00797)
Sequence (P00797 whole entry): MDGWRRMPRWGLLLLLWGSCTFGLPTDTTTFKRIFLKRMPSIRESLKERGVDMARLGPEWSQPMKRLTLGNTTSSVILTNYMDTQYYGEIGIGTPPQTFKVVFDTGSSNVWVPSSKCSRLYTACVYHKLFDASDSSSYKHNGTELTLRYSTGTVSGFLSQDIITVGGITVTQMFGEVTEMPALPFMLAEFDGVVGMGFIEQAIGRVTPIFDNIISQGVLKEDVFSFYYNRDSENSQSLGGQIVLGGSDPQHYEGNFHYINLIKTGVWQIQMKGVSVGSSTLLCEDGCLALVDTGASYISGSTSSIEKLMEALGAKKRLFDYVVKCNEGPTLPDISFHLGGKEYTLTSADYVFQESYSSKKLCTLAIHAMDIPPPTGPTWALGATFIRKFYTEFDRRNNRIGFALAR
pIC50: −log10 of the molar value.
assay-metric: pIC50

| smiles | reported |
| --- | --- |
| COCCCOc1cc(C[C@@H](C[C@H](N)[C@@H](O)C[C@H](C(=O)NCCc2nn[nH]n2)C(C)C)C(C)C)ccc1OC | 8.70 |
| COCCCOc1cc(C[C@@H](C[C@H](N)[C@@H](O)C[C@H](C(=O)NCCN2CCOCC2)C(C)C)C(C)C)ccc1OC | 9.40 |
| COCCCOc1cc(C[C@@H](C[C@H](N)[C@@H](O)C[C@H](C(=O)NC[C@H]2CCC(=O)N2)C(C)C)C(C)C)ccc1OC.Cl | 8.70 |

----------
# IC50 per entry for UniProt P00797

| molecule | IC50 (nM) |
| --- | --- |
| COCCCOc1cc(C[C@@H](C[C@H](N)[C@@H](O)C[C@H](C(=O)N[C@@H](C)CC(N)=O)C(C)C)C(C)C)ccc1OC | 1 |
| COCCCOc1cc(C[C@@H](C[C@H](N)[C@@H](O)C[C@H](C(=O)NC(C)CN2CCOCC2)C(C)C)C(C)C)ccc1OC (stereo not given in full) | 3 |
| COCCCOc1cc(C[C@@H](C[C@H](N)[C@@H](O)C[C@H](C(=O)NCCCN2CCOCC2)C(C)C)C(C)C)ccc1OC | 3 |
| COCCCOc1cc(C[C@@H](C[C@H](N)[C@@H](O)C[C@H](C(=O)NCC(C)(C)C(=O)O)C(C)C)C(C)C)ccc1OC | 3 |
| COCCCCc1cc(C[C@@H](C[C@H](N)[C@@H](O)C[C@H](C(=O)NCC(C)(C)C(N)=O)C(C)C)C(C)C)ccc1OC.Cl | 1 |

Provenance of the data: ChEMBL document CHEMBL1148801
